# assay.system: T1, 表达于CHOK1细胞表面的人TIGIT (CHOK1/人TIGIT细胞, 吉满生物 GM-C01116) (human, UniProt Q495A1 22-244)
# T1 construct: whole, on cells; Purchased cell line; also called CHOK1/hTIGIT
# T1 sequence (looked up): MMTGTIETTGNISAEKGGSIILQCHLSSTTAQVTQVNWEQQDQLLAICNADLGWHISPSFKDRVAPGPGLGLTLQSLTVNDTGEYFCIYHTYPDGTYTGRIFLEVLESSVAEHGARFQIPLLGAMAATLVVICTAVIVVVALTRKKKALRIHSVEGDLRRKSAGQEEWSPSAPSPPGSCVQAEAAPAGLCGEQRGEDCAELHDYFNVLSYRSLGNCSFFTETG
# experiment.notes: flow cytometry competition, EC50 of % inhibition of Biotinylated-CD155 (0.6μg/ml) binding to CHOK1/hTIGIT cells
quantity.measured: EC50
Form entry: enter the amount, then its unit.

Request: Supply measured EC50 of 人源化抗TIGIT抗体A1 (antibody, human IgG1, kappa, V domains shown, Humanized) VH: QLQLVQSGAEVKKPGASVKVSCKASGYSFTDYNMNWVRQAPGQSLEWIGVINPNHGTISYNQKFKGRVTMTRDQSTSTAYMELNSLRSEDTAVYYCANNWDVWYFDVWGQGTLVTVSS VL: DIQMTQSPSSLSASVGDRVTITCRPSENIYSYLAWYQQKPGKAPKLLIYNAKALAEGVPSRFSGSGSGTDFTLTISSLQPEDFATYYCQHHFGAPWTFGQGTKVEIKR in your reply.
Result: 0.43 µg/mL
